Target: CYP1A1 (Homo sapiens, UniProt P04798)
Experiment: Inhibition of CYP1A1 in human Caco-2 cells assessed as relative activity by measuring fold change at 500 nM incubated for 12 hrs by EROD assay relative to control
Format: cell-based
Conditions: read-out: FC
readout-kind: fold induction at 12 h, 0.5 µM

Worked examples, 5 compounds total:
Cn1cccc1/C=C/C(=O)c1ccc2c(c1)n(C)c(=O)n2C	0.45
CSc1ccc(/C=C/C(=O)c2ccc3c(c2)n(C)c(=O)n3C)cc1	0.81
C#Cc1ccccc1/C=C/C(=O)c1ccc2c(c1)n(C)c(=O)n2C	0.06
CN(C)c1ccc(/C=C/C(=O)c2ccc3c(c2)n(C)c(=O)n3C)cc1	0.52
Cn1c(=O)n(C)c2cc(C(=O)/C=C/c3cc4ccccc4o3)ccc21	0.66

1 = Cn1c(=O)n(C)c2cc(S(=O)(=O)NCc3ccccc3)ccc21
2 = C#Cc1ccc(/C=C/C(=O)c2ccc3c(c2)n(C)c(=O)n3C)cc1
3 = C#Cc1ccc(/C=C/C(=O)c2ccccc2)cc1
Qu. Order field: fold induction at 12 h, 0.5 µM | Direction: descending (largest first) Your task in answering is to list the labels in the requested order.
Ans. 1, 3, 2

====

Biological target: CYP1A1 (Homo sapiens)
Sequence (P04798 whole entry): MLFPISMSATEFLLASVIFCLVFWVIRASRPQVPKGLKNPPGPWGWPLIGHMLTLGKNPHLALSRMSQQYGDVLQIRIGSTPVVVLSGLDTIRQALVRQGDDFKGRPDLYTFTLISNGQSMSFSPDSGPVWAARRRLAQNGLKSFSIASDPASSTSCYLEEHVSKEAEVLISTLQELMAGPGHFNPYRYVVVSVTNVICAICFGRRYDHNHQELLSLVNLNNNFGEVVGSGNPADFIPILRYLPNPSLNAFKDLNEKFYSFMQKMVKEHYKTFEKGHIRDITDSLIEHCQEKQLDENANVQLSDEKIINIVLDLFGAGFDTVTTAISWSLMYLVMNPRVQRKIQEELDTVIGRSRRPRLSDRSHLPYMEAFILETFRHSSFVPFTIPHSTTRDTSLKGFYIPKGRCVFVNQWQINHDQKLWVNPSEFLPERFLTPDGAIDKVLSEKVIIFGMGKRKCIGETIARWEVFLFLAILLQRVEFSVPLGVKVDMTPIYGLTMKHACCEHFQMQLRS
Assay: Inhibition of CYP1A1 in human Caco-2 cells assessed as relative activity by measuring fold change at 500 nM incubated for 12 hrs by EROD assay relative to control
Assay type: cell-based
Details: read-out: FC
readout-kind: fold induction at 12 h, 0.5 µM

P = Cn1c(=O)n(C)c2cc(C(=O)/C=C/c3c4ccccc4cc4ccccc34)ccc21
Q = Cn1c(=O)n(C)c2cc(C(=O)/C=C/c3cccc(F)c3)ccc21
Qu. Exercise: compare P and Q ; which one has the greater fold induction at 12 h, 0.5 µM? Please respond with the label that marks your chosen entry.
Ans. P
(P: 0.8, Q: 0.32)

1 = Cn1c(=O)n(C)c2cc(C(=O)/C=C/c3cccnc3)ccc21
2 = Cn1c(=O)n(C)c2cc(C(=O)/C=C/c3ccc([N+](=O)[O-])cc3)ccc21
3 = Cn1c(=O)n(C)c2cc(C(=O)/C=C/c3cccs3)ccc21
4 = C#Cc1cccc(/C=C/C(=O)c2ccc3c(c2)n(C)c(=O)n3C)c1
Qu. Thanks in advance: please rank these 4 entries by fold induction at 12 h, 0.5 µM, highest to lowest. Note for the reader: the ranking is given by listing the labels in the order requested.
Ans. 1, 2, 3, 4
(1: 3.53, 2: 0.97, 3: 0.45, 4: 0.18)

a = Cn1c(=O)n(C)c2cc(C(=O)/C=C/c3ccc4ccccc4c3)ccc21
b = Cn1c(=O)n(C)c2cc(C(=O)/C=C/c3ccccc3)ccc21
Qu. Identify the entry with the smaller fold induction at 12 h, 0.5 µM: a or b . Please reply using the label of the selected record.
Ans. b
(b: 0.71, a: 1.18)

P = Cn1c(=O)n(C)c2cc(C(=O)/C=C/c3coc4ccccc34)ccc21
Q = Cn1c(=O)n(C)c2cc(C(=O)/C=C/C3CC3)ccc21
Qu. Between the entries labelled P and Q , which has a larger fold induction at 12 h, 0.5 µM value on record? Kindly give the label for the entry you pick.
Ans. P

These measurements were taken from ChEMBL document CHEMBL6178019.
